Origin of measurements: ChEMBL document CHEMBL1157539

system: Plasmodium falciparum; assay: GSK_TCMDC: Inhibition of Plasmodium falciparum 3D7 in whole red blood cells, using parasite LDH activity as an index of growth. Test compounds present at 2uM; type: functional
Measurement Kind: Inhibition (%)
Return type: number; implicit unit %.

Here's what some known entries look like.
CCOc1cc(NCCSCc2nc[nH]c2C)nc2ccccc12 ... 92
O=C(Cn1c(=O)oc2ccccc21)N1CCC(n2c(=O)n(CCCN3CCOCC3)c3ccccc32)CC1 ... 99

Which measured Inhibition value corresponds to CCN(CC)c1nc(-c2ccccc2)cc(-c2ccccc2)c1C#N ? 100

Quick one: Inhibition for CC(=O)Nc1ncc(C(=O)Nc2cccc(-c3cccc(-c4nc5cccc(C)c5[nH]4)c3)c2)s1 ? 94

Which Inhibition is reported for this molecule? CC(C)c1ccc(CN2CCCCC(NC(=O)c3cc(-c4ccccc4Cl)cs3)C2)cc1.O=C(O)C(F)(F)F (stereo not given) 100

Requested field: Inhibition. Item: CCC(C)NCC(O)(c1ccc(Cl)cc1)c1ccc(Cl)cc1 (stereo not given) 95

Reported Inhibition for O=C(CC(=O)C(F)(F)F)c1ccccc1[N+](=O)[O-] : what is it? 97

Requested read-out: Inhibition. Entry: COc1cc(Nc2ccnc3ccc(C(F)(F)F)cc23)ccc1OCCCc1ccccc1 99

Tell me the measured Inhibition of Cc1[nH]c(C)c(-c2ccc(-c3cccc(C(F)(F)F)c3)nc2)c(=O)c1Br , please. 97

What Inhibition value was documented for this molecule, O=C(N[C@@H](Cc1ccccc1)C(=O)NC1CCCCC1)c1ccc(O)c(-c2ccc(Cl)c(Cl)c2)c1 ? 98

Given O=C(C1CC1)N1c2ccccc2CCc2ccccc21 , state its recorded Inhibition. 98

###

tested on: Plasmodium falciparum; experiment: GSK_TCMDC: Inhibition of Plasmodium falciparum Dd2 in whole red blood cells, using parasite LDH activity as an index of growth. Test compounds present at 2uM; type: functional
// boundary case: Inhibition equal to 70% maps to False; strictly smaller maps to True

O=C(Nc1ccc(OC2CCN(Cc3ccc(F)cc3)C2)c(Cl)c1)c1cccs1.O=C(O)C(F)(F)F (stereo not drawn) ... False

# strict comparison: is reported Inhibition < 70%? input = Cl.O=S(=O)(Nc1cc2c(cc1O)CCNCC2)c1ccc(-c2ccc(Cl)cc2)cc1 True

Given the entry COc1ccc(Nc2cc(C)c3cc(NC(=O)c4ccncc4)ccc3n2)cc1 , would its reported Inhibition be below 70%? True

Given Clc1cccc(C23N/C(=N\c4nc5ccccc5[nH]4)NC2(c2ccccc2)N/C(=N\c2nc4ccccc4[nH]2)N3)c1 (stereo not drawn) , is recorded Inhibition strictly lower than 70%? False

I wonder whether CCN(CC)CCCN(CCCN(CC)CC)c1cc(C)nc(Nc2ccc3cc(Br)ccc3c2)n1.Cl has Inhibition below 70%. Can you tell? False

# TODO verify Inhibition < 70% strictly for this molecule: Cc1ccccc1CNc1nccc(NCCC(=O)Nc2ccccc2)n1.O=C(O)C(F)(F)F True

is_below(Inhibition, 70%) for O=C(C=Cc1ccc(Cl)c(Cl)c1)NCCCCCN1CCCC(CCCNC(=O)/C=C/c2ccccc2)C1 (stereo not drawn) ? True

Please check: Inhibition for CC(C)CCCC(C)(C)NC[C@@H](O)[C@H](Cc1ccccc1)NC(=O)c1cc(NC(C)C)cc(N2CCCCS2(=O)=O)c1F.O=CO , strictly under 70% or not? False

###

tested on: HepG2; assay: GSK_TCMDC: Percent inhibition of human HepG2 cell line. Test compounds present at 10uM.; assay type: functional
Measurement Kind: Inhibition (%)
Entry rule: numbers only, all in %.

Before answering, review these 4 worked examples.
CC(CN1CCN(C)CC1)C(=O)Nc1ccc(-c2ccc(-c3nc4cc(F)ccc4[nH]3)cc2)cc1 (stereo not given) ... 19
Cc1cc(=O)c2cc(-c3ccc(OC(F)(F)F)cc3)ccc2[nH]1 ... 0
CCCCCOc1ccc(C(O)C(CCC(CN2CCCCCC2)C(O)c2ccc(OCCCCC)cc2)CN2CCCCCC2)cc1.Cl (stereo not given) ... 99
CC(C)Oc1cc2c(cc1NS(=O)(=O)c1ccc(-c3ccc(Cl)s3)cc1F)CCN(C)CC2.Cl ... 23

What measured Inhibition is associated with Cc1nnsc1C(=O)Nc1ccc(-c2cccc(-c3nc4cc(F)ccc4[nH]3)c2)cc1 on HepG2? 44

###

system: HepG2; test: GSK_TCMDC: Percent inhibition of human HepG2 cell line. Test compounds present at 10uM.; type: functional
The entries below come with measured Inhibition values attached.
Just the number please, in %, no unit attached.

Provide value of Inhibition for this record tested with HepG2: O=C(NC1CCN(Cc2ccccc2)CC1)c1ccc2c(=O)n(Cc3ccc(Cl)cc3)c(=S)[nH]c2c1 16

// lookup Inhibition | system=HepG2 | key= Br.NCC(=O)NC12CC3CC(CC(C3)C1)C2 15

# query: Inhibition | item Oc1cccc(-c2nc3cc(C4=NC5CCCCC5N4)ccc3[nH]2)c1 (centres undefined) | system: HepG2 3

Notebook: pull reported Inhibition for HepG2, entry C=CC[C@H](C[C@H](O)[C@H](Cc1ccccc1)NC(=O)c1ccc(-n2cccn2)cc1)C(=O)NC1CCCCC1 1

Checklist item: Inhibition tested on HepG2, entry CCCCNCc1ccc(-c2nc(CN(C(=O)Nc3cc([N+](=O)[O-])ccc3F)C3Cc4ccccc4C3)cs2)cc1.O=C(O)C(F)(F)F , value? 15

Item: CC(C)CC(=O)N1CCNC[C@@H]1C(=O)NC1CC1.O=C(O)C(F)(F)F Test system: HepG2 Read-out: Inhibition Value: ? 0

Query Inhibition on HepG2 for NC(=O)C1CCN(Cc2cccc(-c3ccc(-c4nc5cc(C(F)(F)F)ccc5[nH]4)cc3)c2)CC1.O=C(O)C(F)(F)F 7

Please state recorded Inhibition (tested on HepG2) of COc1ccc2ncc(C#N)c(CCN3CCC(NCc4cnc5c(c4)OCCO5)CC3)c2n1.Cl 3

# get_value(readout= Inhibition, system= HepG2) for O=C(NC1CCCCC1)c1ccc(O)c(-c2cccc(C(F)(F)F)c2)c1 8

###

system: Plasmodium falciparum; test: GSK_TCMDC: Inhibition of Plasmodium falciparum 3D7 in whole red blood cells, using parasite LDH activity as an index of growth. Test compounds present at 2uM; format: functional
Measurement Kind: Inhibition (%)
Express it in %; write the number only.

# example entries with known answers
CN(C)CCOc1ccc2nc(-c3cccc(OCc4ccccc4)c3)[nH]c2c1C#N ... 100
O=C(NC1CC1)c1ccc(N2CCOc3ccc(Cl)cc32)s1 ... 94
Cl.O=C(NCc1ccc(C(=O)N2CCC(N3CCCCC3)CC2)cc1)c1cc(-c2cccc(C(F)(F)F)c2)ccc1O ... 100
O=c1cc(NCCCNCc2[nH]c3cc(Cl)cc(Cl)c3c2Cn2cccn2)[nH]c2ccccc12 ... 86
Br.CCn1c2c(c(=N)c3ccccc31)CCC2 ... 83
Cc1cccc(-c2nn(-c3ccccc3)c3[nH]c(=O)c(CNC4CCCC4)cc23)c1 ... 98

I'd like to know its Inhibition. The compound in question is CC(C)COc1cc(C(=O)Nc2cnc3ccccc3c2)ccc1[N+](=O)[O-] 97

Given CCc1cn2c3c(cc(C(=O)N[C@@H](Cc4cccc(Cl)c4)[C@H](O)CNC4CCCCC4)cc13)N(C)S(=O)(=O)CC2.O=CO , state its recorded Inhibition. 97

# Inhibition lookup, item CC(=O)Nc1cc(C(=O)Nc2cccc(-c3csc(-c4nc5ccccc5[nH]4)c3)c2)ccc1C 94

###

Documented Inhibition across a set of compounds
tested on: Plasmodium falciparum; assay: GSK_TCMDC: Inhibition of Plasmodium falciparum 3D7 in whole red blood cells, using parasite LDH activity as an index of growth. Test compounds present at 2uM; type: functional

O=C(Nc1cccc(-c2ccc(-c3nc4cc(C(F)(F)F)ccc4[nH]3)cc2)c1)c1ccncc1 ... 100%
O=C(Nc1ccc(-c2ccc(-c3nc4ccccc4[nH]3)s2)cc1)Nc1ccc(F)c(F)c1F ... 99%
CC(C)Cn1ncc2c3c(N)nc(N)nc3ccc21 ... 94%
CC(C)N1CCN(CCCCNc2c3ccccc3nc3ccccc23)CC1.Cl ... 100%
O=C(/C=C/c1ccc(Cl)cc1)NCCCCCN1CCCN(C(=O)Nc2ccc(F)c(Cl)c2)CC1 ... 94%

Quick one: Inhibition for Clc1nc2ccccn2c1C=Cc1ccc2ccccc2n1 ? 86%

Which Inhibition is reported for this compound? c1ccc(-c2[nH]c3ccccc3c2CN2CCC(N3CCCCC3)CC2)nc1 100%

Inhibition for O=C(/C=C/c1cccc2ccccc12)NCCCCCN1CCC(c2c[nH]c3ccccc23)CC1 ? 92%

###

test system: Plasmodium falciparum; experiment: GSK_TCMDC: Inhibition of Plasmodium falciparum Dd2 in whole red blood cells, using parasite LDH activity as an index of growth. Test compounds present at 2uM; format: functional
Note to self: Inhibition under 40% means satisfied, ties and anything higher get not satisfied.

Look over these answered cases.
COc1ccc(C)c(Nc2ccnc(Nc3ccc(-c4cnc[nH]4)cc3)n2)c1.Cl ... satisfied
COc1c(O)cc2oc(-c3ccc(O)cc3)cc(=O)c2c1O ... satisfied
CN(C)c1ccc(NC(=O)Nc2ccnc3ccc(Br)cc23)cc1.Cl ... satisfied

Input CCN(CC)CCCNc1ncc2c(-c3ccc(NC(=O)Nc4cc(C(F)(F)F)ccc4F)cc3)nn(C)c2n1.O=C(O)C(F)(F)F ; condition: Inhibition strictly below 40%. Does it hold? not satisfied

Find out if reported Inhibition for CCCCCNc1nc(Nc2ccccc2C)nc2ccccc12.Cl is less than 40% satisfied
